- Method: Elimination half-life in iv dosed dog
- Assay type: ADME, organism-based, Canis lupus familiaris
- Experimental setup: in vivo, read-out: beta t1/2 (converted)
Assay metric: half-life (h)
Give bare numbers, in h.

Which half-life value is on record for C[C@H]1CC[C@H](n2c3cnccc3c3cnc(Nc4ccc5c(n4)CCN(C(=O)CO)C5)nc32)CC1 ?
4.1

###

Please go through the items and note down their pIC50.
- Target of assay: Cyclin-dependent kinase 4/cyclin D1 (Homo sapiens)
- Sequence (P11802 whole entry): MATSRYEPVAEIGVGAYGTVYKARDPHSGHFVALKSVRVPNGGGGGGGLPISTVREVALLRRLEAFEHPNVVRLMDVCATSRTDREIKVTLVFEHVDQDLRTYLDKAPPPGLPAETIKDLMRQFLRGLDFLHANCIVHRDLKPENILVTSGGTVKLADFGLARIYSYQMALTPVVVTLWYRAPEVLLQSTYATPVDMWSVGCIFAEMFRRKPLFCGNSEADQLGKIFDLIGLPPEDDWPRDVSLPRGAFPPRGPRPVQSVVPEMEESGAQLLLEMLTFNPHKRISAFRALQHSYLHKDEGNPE
- Sequence (P24385 whole entry, further chain): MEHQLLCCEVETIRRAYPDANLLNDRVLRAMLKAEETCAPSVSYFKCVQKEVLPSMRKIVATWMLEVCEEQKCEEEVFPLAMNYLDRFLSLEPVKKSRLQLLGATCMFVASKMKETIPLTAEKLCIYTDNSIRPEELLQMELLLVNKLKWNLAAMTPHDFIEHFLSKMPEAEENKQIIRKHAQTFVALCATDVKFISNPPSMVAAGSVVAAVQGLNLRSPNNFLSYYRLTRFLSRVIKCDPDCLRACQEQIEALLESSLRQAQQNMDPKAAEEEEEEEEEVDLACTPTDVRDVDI
- Method: Inhibition of CDK4/cyclin D1 (unknown origin) using Rb as substrate after 60 mins by scintillation counting analysis in presence of [r-33P]ATP
Answers are plain numbers, as −log10 of the molar value.

Take a look at these entries with their results.
{"Smiles string": "C[C@H]1CC[C@H](n2c3cnccc3c3cnc(Nc4ccc(N5CCC6(CC5)CCS(=O)(=O)C6)nn4)nc32)CC1", "Target of assay": "Cyclin-dependent kinase 4/cyclin D1 (Homo sapiens)", "Result value": 8.40}
{"Smiles string": "CC1(C)CCC(n2c3cnccc3c3cnc(Nc4ccc(N5CCNCC5)cn4)nc32)CC1", "Target of assay": "Cyclin-dependent kinase 4/cyclin D1 (Homo sapiens)", "Result value": 9.00}
{"Smiles string": "C[C@H]1CC[C@H](n2c3cnccc3c3cnc(Nc4ccc(N5CCNCC5)nc4)nc32)CC1", "Target of assay": "Cyclin-dependent kinase 4/cyclin D1 (Homo sapiens)", "Result value": 8.52}

Give me pIC50 for each of these compounds, listed below.
1. CN(C)C1CCN(c2ccc(Nc3ncc4c5ccncc5n([C@H]5CC[C@H](C)CC5)c4n3)nn2)CC1
2. C[C@H]1CC[C@H](n2c3cnccc3c3cnc(Nc4ccc(N5CCNCC5)cn4)nc32)CC1

1: 8.70; 2: 8.15

###

- Method: Clearance in iv dosed rat
- Type: ADME, organism-based
- Experimental setup: in vivo
Please map values of clearance to classes as shown: label 0: < 9 mL/min/kg; label 1: ≥ 9 mL/min/kg and < 20 mL/min/kg; label 2: ≥ 20 mL/min/kg

These solved cases illustrate the format of a correct answer.
{"Smiles string": "CN(C)C1CCN(c2ccc(Nc3ncc4c5ccncc5n([C@H]5CC[C@H](C)CC5)c4n3)nc2)CC1", "Label class": "label 2"}
{"Smiles string": "COc1nc(Nc2ncc3c4ccncc4n([C@H]4CC[C@H](C)CC4)c3n2)ccc1N1CCC2(CCC(=O)N2)CC1", "Label class": "label 1"}

State the class of the compound shown: C[C@H]1CC[C@H](n2c3cnccc3c3cnc(Nc4ccc(N5CCC6(CCC(=O)N6)CC5)cn4)nc32)CC1
label 2

State the class of the compound shown: Fc1nccc2c3cnc(Nc4ccc(N5CCNCC5)cn4)nc3n(C3CCCC3)c12
label 2

State the class of the compound shown: C[C@H]1CC[C@H](n2c3cnccc3c3cnc(Nc4ccc(N5CCN(C(=O)CO)CC5)nn4)nc32)CC1
label 0

State the class of the compound shown: CN(C)C1CCN(c2ccc(Nc3ncc4c5ccncc5n([C@H]5CC[C@H](C)CC5)c4n3)nn2)CC1
label 1

State the class of the compound shown: C[C@H]1CC[C@H](n2c3cnccc3c3cnc(Nc4ccc5c(n4)CCN(C(=O)CO)C5)nc32)CC1
label 0

###

- Target of assay: Receptor-type tyrosine-protein kinase FLT3 (Homo sapiens, UniProt P36888, ITD)
- Sequence (P36888 whole entry, looked up, change not shown): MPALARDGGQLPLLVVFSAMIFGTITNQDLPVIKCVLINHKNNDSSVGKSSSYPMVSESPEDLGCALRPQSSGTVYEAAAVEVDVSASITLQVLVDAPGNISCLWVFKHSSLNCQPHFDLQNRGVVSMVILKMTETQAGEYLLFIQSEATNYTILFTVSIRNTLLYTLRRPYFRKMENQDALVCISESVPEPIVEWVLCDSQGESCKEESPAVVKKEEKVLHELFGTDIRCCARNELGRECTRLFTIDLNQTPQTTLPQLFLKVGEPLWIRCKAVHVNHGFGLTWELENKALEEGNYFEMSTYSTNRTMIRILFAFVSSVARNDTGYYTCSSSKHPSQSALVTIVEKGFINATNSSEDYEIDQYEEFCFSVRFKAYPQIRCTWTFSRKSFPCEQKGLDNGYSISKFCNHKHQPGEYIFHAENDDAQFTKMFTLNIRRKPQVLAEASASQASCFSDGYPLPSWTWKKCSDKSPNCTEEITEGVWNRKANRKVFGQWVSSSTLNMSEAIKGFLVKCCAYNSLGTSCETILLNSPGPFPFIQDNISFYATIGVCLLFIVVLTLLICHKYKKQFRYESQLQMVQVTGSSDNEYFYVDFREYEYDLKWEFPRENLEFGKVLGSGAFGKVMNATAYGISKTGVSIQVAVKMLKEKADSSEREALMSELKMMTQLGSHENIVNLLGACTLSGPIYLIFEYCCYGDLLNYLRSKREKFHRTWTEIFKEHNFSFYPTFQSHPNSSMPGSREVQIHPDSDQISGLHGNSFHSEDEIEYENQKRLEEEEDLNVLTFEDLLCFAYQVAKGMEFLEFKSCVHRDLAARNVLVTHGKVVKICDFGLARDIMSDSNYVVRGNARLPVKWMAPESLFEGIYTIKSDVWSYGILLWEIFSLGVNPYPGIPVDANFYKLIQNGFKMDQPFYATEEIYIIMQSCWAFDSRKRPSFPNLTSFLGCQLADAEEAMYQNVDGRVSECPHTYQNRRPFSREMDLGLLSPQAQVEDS
- Method: Binding affinity to FLT3 ITD mutant (unknown origin)
Assay metric: pKd
Answers are plain numbers, as −log10 of the molar value.

Which pKd value is on record for C[C@H]1CC[C@H](n2c3cnccc3c3cnc(Nc4ccc5c(n4)CCN(C(=O)CO)C5)nc32)CC1 ?
8.40

###

- Method: Clearance in iv dosed dog
- Type: ADME, organism-based, Canis lupus familiaris
- Experimental setup: in vivo
Assay metric: clearance (mL/min/kg)
Give bare numbers, in mL/min/kg.

Which clearance value is on record for C[C@H]1CC[C@H](n2c3cnccc3c3cnc(Nc4ccc5c(n4)CCN(C(=O)CO)C5)nc32)CC1 ?
23.5

###

- Method: Volume of distribution at steady state in iv dosed rat
- Assay type: ADME, organism-based
- Experimental setup: in vivo, read-out: Vdss
Assay metric: Vd (L/kg)
One number for each entry, in L/kg.

Which Vd value is on record for C[C@H]1CC[C@H](n2c3cnccc3c3cnc(Nc4ccc5c(n4)CCN(C(=O)CO)C5)nc32)CC1 ?
1.8

###

- Tested on: COLO 205
- Method: Antiproliferative activity against Rb-positive human COLO205 cells assessed as incorporation of [14C]thymidine into DNA after 72 hrs by beta-plate counting analysis
Assay metric: pIC50
Answers are plain numbers, as −log10 of the molar value.

Take a look at these entries with their results.
{"Smiles string": "CN(C)C1CCN(c2ccc(Nc3ncc4c5ccncc5n([C@H]5CC[C@H](C)CC5)c4n3)nc2)CC1", "pIC50": 8.00}
{"Smiles string": "CS(=O)(=O)CC1CCN(c2ccc(Nc3ncc4c5ccncc5n([C@H]5CC[C@H](C)CC5)c4n3)nn2)CC1", "pIC50": 7.72}

Which pIC50 value is on record for CC1(C)CCC(n2c3cnccc3c3cnc(Nc4ccc(N5CCNCC5)cn4)nc32)CC1 ?
7.55

###

Please go through the items and note down their IC50.
- Target of assay: Cyclin-dependent kinase 1/cyclin B1 (Homo sapiens)
- Sequence (P06493 whole entry): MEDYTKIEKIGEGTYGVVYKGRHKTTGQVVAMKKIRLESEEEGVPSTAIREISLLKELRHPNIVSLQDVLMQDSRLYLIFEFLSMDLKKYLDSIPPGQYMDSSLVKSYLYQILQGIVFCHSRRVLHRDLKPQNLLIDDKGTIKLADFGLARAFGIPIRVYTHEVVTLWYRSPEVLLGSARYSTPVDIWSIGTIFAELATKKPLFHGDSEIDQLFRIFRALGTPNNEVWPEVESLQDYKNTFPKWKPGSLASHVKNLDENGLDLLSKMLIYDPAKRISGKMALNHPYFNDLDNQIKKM
- Sequence (P14635 whole entry, further chain): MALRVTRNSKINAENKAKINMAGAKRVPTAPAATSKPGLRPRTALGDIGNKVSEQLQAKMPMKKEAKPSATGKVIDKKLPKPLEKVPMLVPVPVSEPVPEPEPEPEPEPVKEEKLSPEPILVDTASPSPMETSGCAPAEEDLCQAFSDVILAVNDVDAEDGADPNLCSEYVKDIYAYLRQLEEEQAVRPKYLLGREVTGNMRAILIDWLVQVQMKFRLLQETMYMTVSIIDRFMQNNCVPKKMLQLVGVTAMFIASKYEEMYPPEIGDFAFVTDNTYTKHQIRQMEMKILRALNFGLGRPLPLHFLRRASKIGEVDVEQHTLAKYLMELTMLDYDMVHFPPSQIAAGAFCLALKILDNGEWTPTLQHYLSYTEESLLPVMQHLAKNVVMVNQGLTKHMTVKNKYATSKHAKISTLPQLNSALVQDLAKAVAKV
- Method: Inhibition of CDK1/cyclin B (unknown origin) using histone H1 as substrate after 60 mins by scintillation counting analysis in presence of [r-33P]ATP
Answers are plain numbers, in µM.

{"Smiles string": "CC1(C)CCC(n2c3cnccc3c3cnc(Nc4ccc(N5CCNCC5)cn4)nc32)CC1", "Unit label": "µM", "IC50": 2.91}
{"Smiles string": "O=c1[nH]ccc2c3cnc(Nc4ccc(N5CCNCC5)cn4)nc3n(C3CCCC3)c12", "Unit label": "µM", "IC50": 10}
{"Smiles string": "C[C@H]1CC[C@H](n2c3cnccc3c3cnc(Nc4ccc(N5CCN(C(=O)CO)CC5)nn4)nc32)CC1", "Unit label": "µM", "IC50": 1.05}

Give me IC50 for each of these compounds, listed below.
1. C[C@@H](CO)n1c2cnccc2c2cnc(Nc3ccc(N4CCNCC4)cn3)nc21
2. N#Cc1nccc2c3cnc(Nc4ccc(N5CCNCC5)cn4)nc3n(C3CCCC3)c12
3. C[C@H]1CC[C@H](n2c3cnccc3c3cnc(Nc4ccc(N5CCC6(CCC(=O)N6)CC5)cn4)nc32)CC1
4. C[C@H]1CC[C@H](n2c3cnccc3c3cnc(Nc4ccc(N5CCNCC5)nn4)nc32)CC1

12.8
30
1.77
1.53

Give me IC50 for each of these compounds, listed below.
1. CN(C)C1CCN(c2ccc(Nc3ncc4c5ccncc5n([C@H]5CC[C@H](C)CC5)c4n3)nc2F)CC1
2. O[C@H]1CC[C@H](n2c3cnccc3c3cnc(Nc4ccc(N5CCNCC5)cn4)nc32)CC1
3. c1cc2c3cnc(Nc4ccc(N5CCNCC5)cn4)nc3n(C3CCCC3)c2cn1
4. CS(=O)(=O)CC1CCN(c2ccc(Nc3ncc4c5ccncc5n([C@H]5CC[C@H](C)CC5)c4n3)nn2)CC1

1: 2.68; 2: 3.41; 3: 3; 4: 3.97

###

- Target of assay: Receptor-type tyrosine-protein kinase FLT3 (Homo sapiens, UniProt P36888, ITD)
- Method: Inhibition of FLT3 ITD mutant in human MOLM13 cells assessed as inhibition of STAT5 phosphorylation at Tyr694 after 24 hrs
Please go through the items and note down their pIC50.
Give bare numbers, as −log10 of the molar value.

{"Smiles string": "CN(C)C1CCN(c2ccc(Nc3ncc4c5ccncc5n([C@H]5CC[C@H](C)CC5)c4n3)nn2)CC1", "pIC50": 7.28}

Continue with the compound presented below.
State its pIC50 on Receptor-type tyrosine-protein kinase FLT3 (Homo sapiens, UniProt P36888, ITD): C[C@H]1CC[C@H](n2c3cnccc3c3cnc(Nc4ccc5c(n4)CCN(C(=O)CO)C5)nc32)CC1
8.30

###

- Method: Volume of distribution at steady state in iv dosed dog
- Type: ADME, organism-based, Canis lupus familiaris
- Experimental setup: in vivo, read-out: Vdss
Assay metric: Vd (L/kg)
One number for each entry, in L/kg.

Which Vd value is on record for C[C@H]1CC[C@H](n2c3cnccc3c3cnc(Nc4ccc5c(n4)CCN(C(=O)CO)C5)nc32)CC1 ?
2.6

###

- Target of assay: UniProt P08684
- Sequence (P08684 whole entry): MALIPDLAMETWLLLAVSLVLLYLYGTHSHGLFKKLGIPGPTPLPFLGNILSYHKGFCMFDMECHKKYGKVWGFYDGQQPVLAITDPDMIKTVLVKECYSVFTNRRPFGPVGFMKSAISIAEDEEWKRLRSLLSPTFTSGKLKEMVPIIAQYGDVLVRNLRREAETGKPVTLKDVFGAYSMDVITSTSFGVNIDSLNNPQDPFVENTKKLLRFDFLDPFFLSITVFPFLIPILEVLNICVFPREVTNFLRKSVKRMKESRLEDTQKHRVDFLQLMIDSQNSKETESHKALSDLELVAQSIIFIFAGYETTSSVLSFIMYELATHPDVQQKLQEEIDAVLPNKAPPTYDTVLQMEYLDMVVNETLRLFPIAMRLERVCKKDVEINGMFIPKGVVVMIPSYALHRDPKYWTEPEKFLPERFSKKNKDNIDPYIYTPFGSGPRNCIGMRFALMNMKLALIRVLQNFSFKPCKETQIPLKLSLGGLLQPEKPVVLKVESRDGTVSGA
- Method: Inhibition of CYP3A4 (unknown origin) at 3 uM
- Assay type: ADME
// label = yes (1) if inhibition at 3 µM is not less than 50%, otherwise no (0)

These solved cases illustrate the format of a correct answer.
{"Compound": "CC1(C)CCCC(n2c3cnccc3c3cnc(Nc4ccc(N5CCNCC5)cn4)nc32)C1 (centres undefined)", "Label class": "yes (1)"}
{"Compound": "C[C@@H](CO)n1c2cnccc2c2cnc(Nc3ccc(N4CCNCC4)cn3)nc21", "Label class": "no (0)"}
{"Compound": "c1cc2c3cnc(Nc4ccc(N5CCNCC5)cn4)nc3n(C3CCCC3)c2nn1", "Label class": "no (0)"}
{"Compound": "Fc1nccc2c3cnc(Nc4ccc(N5CCNCC5)cn4)nc3n(C3CCCC3)c12", "Label class": "no (0)"}
{"Compound": "CC1CCC(n2c3cnccc3c3cnc(Nc4ccc(N5CCNCC5)cn4)nc32)CC1 (mixture of isomers)", "Label class": "no (0)"}
{"Compound": "Clc1nccc2c3cnc(Nc4ccc(N5CCNCC5)cn4)nc3n(C3CCCC3)c12", "Label class": "no (0)"}

Decide: is the reported value of inhibition at 3 µM for Cc1nccc2c3cnc(Nc4ccc(N5CCNCC5)cn4)nc3n(C3CCCC3)c12 equal to or greater than 50%?
no (0)

Decide: is the reported value of inhibition at 3 µM for c1cc2c3cnc(Nc4ccc(N5CCNCC5)cn4)nc3n(C3CCCCC3)c2cn1 equal to or greater than 50%?
yes (1)

Decide: is the reported value of inhibition at 3 µM for O[C@H]1CC[C@H](n2c3cnccc3c3cnc(Nc4ccc(N5CCNCC5)cn4)nc32)CC1 equal to or greater than 50%?
yes (1)
